Molecular target: RSV F protein of subtype B (18537) on recombinant mKate-RSV virus (Respiratory syncytial virus subtype B …, UniProt P13843 26-574)
Assay: cell-based or functional assay
Values of Neut IC50 (µg/ml) subtype B strictly less than 0.1 µg/mL map to satisfied, and values of at least 0.1 µg/mL map to not satisfied.

BINDER	ASSIGNED CATEGORY
ADI-18958 (antibody, V domains shown, full-length IgG from yeast) VH: QVQLQESGAEVKMRGASVKVSCKASGYTFSHYGISWVRQAPGQGLEWMGFISAYNHNTKYAQTVQGRVTLSTDTSTSTAYMELRSLRPDDTAMYYCAREPPSDDAARLFDYWGQGTLVTVSS VL: ETTLTQSPRSLPVTLGQPASISCRSSQSLVYSEGNTYLSWFQQRPGQSPRRLIYKVSNRDSGVPDRFSGSGSGTDFTLKISRVEAEDVGVYYCMQGTQWPVTFGQGTKVEIK	not satisfied
ADI-18875 (antibody, V domains shown, full-length IgG from yeast; also called Antibody Number 232; Ab # 232) VH: QVQLQQWGAGLLKPSETLSLTCAVYGGSFSGYSWSWIRQTPGKGLEWIGEINHRGSTNYNPSLKSRVTMSVDTSQNQISLRVTSVTAADTAVYFCAGTNYGEVNTSNQYFFGMDVWGQGTTVTVSS VL: DIQVTQSPSSLSASVGDRVTITCRASQSIGTYLNWYQQKPGKPPKLLIYAASNLESGVPSSFSGSGSGTHFTLTISSLQPEHFATYYCQQSYSTPLTFGGGTKVEIK	satisfied
ADI-18880 (antibody, V domains shown, full-length IgG from yeast) VH: QVQLVQSGSEVKKPGAAVKVSCKASGYIFANFGVSWVRQAPGQGLEWMGWISAYNGNTNYAQKFQGRVIMTTDTSTSTAYMELRSLRSDDTAVYYCARDPPAYAATLMDVWGKGTTVTVSS VL: EIVLTQSPLSLPVTLGQSASISCRSSQSLEHSDTNTYLTWYQQRPGQSPRRLLYKVSNRDSGVPDRFSGSGSGTDFTLKISRVEAEDVGVYYCMQGTHWPPTFGQGTKVDIK	satisfied
ADI-18896 (antibody, V domains shown, full-length IgG from yeast) VH: EVQLLESGGGVVQSGRSLRLSCAASGFTFSDNGMHWVRQAPGKGLEWVAGIFYDGSNKQYADSVKGRFTISRDNSKSTLYLQMNSLRAEDTAVYYCARAPYDIWSGYCLDYWGQGTLVTVSS VL: DIQMTQTPATLSMSPGERATLSCRASQSVNNNLAWYQQRPGQAPRLLIYGASTRATGIPARFSGSGSETEFTLTISSLQSEDFAVYHCQQYSIWPQTFGQGTKLEIK	not satisfied
ADI-18883 (antibody, V domains shown, full-length IgG from yeast) VH: QVQLVQSGPEVKKPGSSVTVSCKASGGTFSNYGIAWVRQAPGQGLEWMGSTIPILGTASYRQSLKDRVTITADASTTTVYMEMTRLRTEDTAVYFCARVPESLVASNAYAVWGQGTVVTVSS VL: DIQMTQSPSSVSASVGDRVTITCRASQDISTWLAWYQQRPGKAPKLLIYTASSLQSGVPSRFSGSGSGTEFTLTISSLQPEDFATYYCQQGTSFPFTFGPGTKLEIK	satisfied
ADI-18933 (antibody, V domains shown, full-length IgG from yeast) VH: QVQLVESGAEVKKPGASVKVACTASGYAFTNYNIHWVRLAPGQGLEWMAIINPGSGGTDYSEKFQGRLTLTSDTSTSTVYMTLGSLRYEDTAFYYCARRGYPDSGSYPLDYWGQGTLVTVSS VL: DIVMTQSPSSLSASLGDRVTITCRAGRSIATYLNWYQQKPGKAPKLLIYGASSLQSGVPSRFSGSGSGTHFTLTISSLQPEDFATYYCQQSYIRPITFGGGTKVEIK	not satisfied
ADI-18959 (antibody, V domains shown, full-length IgG from yeast; also called Antibody Number 310; Ab # 310) VH: QVQLVQSGAEVKKPGASVRVSCKVYGHTLSELSMHWVRQGPEGGLEWMGAFDHEDGEGIYPQKFQGRITMTADISTDTAHMELRSLRSEDTAVYYCATPTPVGATDFWGQGTLVTVSS VL: DIRVTQSPSSLSASVGDRVTITCRASQSISSYLNWYQQKPGKAPKLLIYAASTLQRGGPSRFSGSGSGTDFTLSISSLQPEDFATYYCQQTYIIPYTFGQGTKLEIK	not satisfied
ADI-18908 (antibody, V domains shown, full-length IgG from yeast) VH: QVQLVESGGGLVKPGGSLRLSCAASGFTFSSFGMHWVRQAPGQGLEWVASITGGSSYINYADSVKGRFTISRDNAKKSLSLQMKNLRAEDTAEYYCVRGVLPGGTGGGWFDSWGQGTLVTVSS VL: QSVLTQPPSMSGAPGQRVTISCTGTSSNIGAGYDVQWYQQFPGTAPKLLISGNNNRPSGVPDRFSGSKSGASASLAITGLQAEDEADYYCQSYDYSLNWVFGGGTKLTVL	satisfied
ADI-18899 (antibody, V domains shown, full-length IgG from yeast) VH: EVQLVESGGGVVQSGRSLRLSCAASGFTFSDNGMHWVRQAPGKGLEWVAGIFYDGSNKQYADSVKGRFTISRDNSKSTLYLQMNSLRAEDTAVYYCARAPYDIWSGYCLDYWGQGTLVTVSS VL: DIRLTQSPATLSMSPGERATLSCRASQSVNNNLAWYQQRPGQAPRLLIYGASTRATGIPARFSGSGSETEFTLTISSLQSEDFAVYHCQQYSIWPQTFGQGTKVDIK	not satisfied
ADI-18972 (antibody, V domains shown, full-length IgG from yeast; also called Antibody Number 320; Ab # 320) VH: QVQLVQSGAEVKKPGASVKVSCKTSGYTFSNYGISWLRQAPGQGLEWMAWISPYNGNTKSAQRFQGRVIMTTDTSTRTAHMEVKSLRTDDTATYYCARDPAVDAIPMLDYWGQGTLVTVSS VL: DIQMTQSPLSLPVTLGQPASISCRSSQSLVYTDGNTYLSWFQQRPGQSPRRLIYRVSHRDSGVPDRFTGSGSGTDFTLIIRRVEAEDVGVYYCMQGTHWPLTFGGGTKLEIK	not satisfied
